system: MARV; assay: organism not typed; type: cell-based, Marburg virus; settings: read-out: MARV IC50

# compound, IC50 (nM)
records = [
    ("COc1cc(C[C@@H]2c3cc4c(cc3CCN2C)OCO4)ccc1Oc1ccc(C[C@@H]2c3cc4c(cc3CCN2C)OCO4)cc1OC", 339),
    ("COc1cc2c(cc1OC)[C@@H](Cc1cccc(Oc3cc(C[C@@H]4c5cc(OC)c(OC)cc5CCN4C)ccc3OC)c1)N(C)CC2", 1180),
    ("COc1cc2c(cc1OC)[C@@H](Cc1ccc(Oc3cccc(C[C@@H]4c5cc(OC)c(OC)cc5CCN4C)c3)nc1)N(C)CC2", 1490),
]

Sourced from patent US20190275027A1
